The measured values listed here are drawn from patent US9737545B2.

- assayed system: wildtype HIV-1 protease (Human immunodeficiency virus type 1 group M subtype B, UniProt P04585)
Recorded IC50 determines the group label, using class A: < 0.1 nM; class B: ≥ 0.1 nM and < 60 nM; class C: ≥ 60 nM

                                    molecule  assigned_category
 0  COC(=O)N[C@H](C(=O)Nc1c(CC[C@@H]2CN[C@H](c3nc4cc(C)c(C)cc4[nH]3)CO2)cc[nH]c1=O)C(c1ccccc1)c1ccccc1            class B
 1  COC(=O)N[C@H](C(=O)Nc1ccccc1CC[C@@H]1CN[C@H](c2nnc(Cc3ccccc3)o2)CO1)C(c1ccccc1)c1ccccc1            class C
 2  COC(=O)N[C@H](C(=O)Nc1ccccc1CC[C@@H]1CN[C@H](c2nc3ccc(S(C)(=O)=O)cc3[nH]2)CO1)C(c1ccccc1)c1ccccc1            class B
 3  COC(=O)N[C@H](C(=O)Nc1ccccc1CC[C@@H]1CN[C@H](c2ncon2)CO1)C(c1ccccc1)c1ccccc1            class C
 4  COC(=O)N[C@H](C(=O)Nc1ccccc1CC[C@@H]1CN[C@H](c2cc3ccccc3[nH]2)CO1)C(c1ccccc1)c1ccccc1            class B
 5  COC(=O)N[C@H](C(=O)Nc1ccccc1CC[C@@H]1CN[C@H](c2nc3c(F)cccc3[nH]2)CO1)C(c1ccccc1)c1ccccc1            class B
 6  Cc1cc2nc([C@@H]3CO[C@H](CCc4c(F)cncc4NC(=O)[C@@H](N)C(c4ccc(F)cc4)c4ccc(F)cc4)CN3)[nH]c2cc1C            class A
 7  COC(=O)N[C@H](C(=O)Nc1ccccc1CC[C@@H]1CN[C@H](c2nc3ccc(F)cc3[nH]2)CO1)C(c1ccccc1)c1ccccc1            class B
 8  COC(=O)N[C@H](C(=O)Nc1ccccc1CC[C@@H]1CN[C@H](c2ncc[nH]2)CO1)C(c1ccccc1)c1ccccc1 [Example 42]            class B
 9  COC(=O)N[C@H](C(=O)Nc1ccccc1CC[C@@H]1CN[C@H](c2cc3cc(OC)ccc3[nH]2)CO1)C(c1ccccc1)c1ccccc1            class C
10  COC(=O)N[C@H](C(=O)Nc1cccc(F)c1CC[C@@H]1CN[C@H](c2nc3cc(C)c(C)cc3[nH]2)CO1)C(c1ccccc1)c1ccccc1            class A
11  COC(=O)N[C@H](C(=O)Nc1ccccc1CC[C@@H]1CN[C@H](C#N)CO1)C(c1ccccc1)c1ccccc1            class C
